// data source = PubChem BioAssay (NCI)

Kindly state growth for each of the entries shown.
System: RPMI-8226 leukemia
ASSAY TEXT: NCI-60 one-dose screen, 48 h (100 = growth as untreated, 0 = no growth, -100 = all killed)
CONDITION LABEL: 10 µM unless noted
Description: Growth inhibition of the RPMI-8226 human tumor cell line is measured as a screen for anti-cancer activity. Cells are grown in 96 well plates and exposed to the test compound for 48 hours. Compounds are tested at a single concentration, which is 10^-5 M for most compounds. The reported endpoint is percent growth (GI% or GIPRCNT), where numbers from 0 - 100% represent growth inhibition, and numbers from -100% - 0 represent cell death. For example, a value of 40 represents 60% growth inhibition. […]
The panel holds about 83,000 compounds, 20% with a hit somewhere; the sample as a whole holds those more often.
A number alone suffices; assume %.

QUERY: Please report the measured growth for CCCCCC(C)(O)C(C(=O)O)c1ccccc1 (stereo not given)
RESULT: 101

QUERY: Please report the measured growth for Cn1nc(-c2ccc(Cl)cc2)nc2c(=O)n(C)c(=O)nc1-2
RESULT: -22.7

QUERY: Please report the measured growth for COc1ccccc1NC(=O)n1c(=O)cc(C)c2ccc(O)cc21
RESULT: 109

QUERY: Please report the measured growth for CCCCCN(CCCCC)CC(O)c1c(Cl)ccc2ccccc12 (stereo not given)
RESULT: 66.2

QUERY: Please report the measured growth for CN1CCN(Cc2ccc(NC(=O)c3cncc(C#Cc4cnc(N)c5ccc(C#N)cc45)c3)cc2C(F)(F)F)CC1
RESULT: -25.3

QUERY: Please report the measured growth for COC(=O)c1ccc(-n2cc(CCCOS(=O)(=O)c3ccc(F)cc3)nn2)cc1
RESULT: 97.3

QUERY: Please report the measured growth for Nc1cc(-c2ccc(Cl)cc2)nn1-c1nc(-c2ccc(Br)cc2)cs1
RESULT: 100

QUERY: Please report the measured growth for CCCCCCC/C=N/NC(=O)c1ccc(-n2cc(-c3ccccc3)nn2)cc1
RESULT: 94.3

QUERY: Please report the measured growth for O=C1NCCS(=O)(=O)/C1=C\C=C\c1cccc(C(F)(F)F)c1
RESULT: -7.36

QUERY: Please report the measured growth for CN(C)CCOc1ccc(/C(=C(/CCCCCCCCCC[P+](c2ccccc2)(c2ccccc2)c2ccccc2)c2ccccc2)c2ccccc2)cc1
RESULT: -48.3

====

System: SN12C renal
ASSAY TEXT: NCI-60 one-dose screen, 48 h
CONDITION LABEL: 10 µM unless noted
About 83,000 compounds went through this panel and 20% of them were active in at least one assay; those are over-represented in the sample as a whole. Active and inactive are the calls of the source. The calls were made as follows: active = growth percent below 10; inactive = the rest.
Would you mind answering with one of these outcomes? 1 (yes) for active, 0 (no) for inactive

QUERY: Short answer needed: outcome of this test for CCOC(=O)c1c2c(n3ccc(NC(=O)CCN4CCCC4)cc13)C(=O)c1ncccc1C2=O ?
RESULT: 1 (yes)

QUERY: Short answer needed: outcome of this test for O=C(/C=C/c1ccco1)c1ccc(Nc2ccnc3cc(Cl)ccc23)cc1 ?
RESULT: 0 (no)

QUERY: Short answer needed: outcome of this test for CC(C)=CC(=O)C1C(=O)c2ccccc2C1=O ?
RESULT: 0 (no)

QUERY: Short answer needed: outcome of this test for CCCCCCC/C=N/NC(=O)c1ccc(-n2cc(-c3ccccc3)nn2)cc1 ?
RESULT: 0 (no)

QUERY: Short answer needed: outcome of this test for C=CC(=O)Nc1ccc2ncnc(Nc3cccc(NS(=O)(=O)CCC)c3Cl)c2c1 ?
RESULT: 0 (no)

QUERY: Short answer needed: outcome of this test for O=C(O)COc1ccc(F)cc1 ?
RESULT: 0 (no)

====

Tested on: CAKI-1 renal
ASSAY TEXT: NCI-60 one-dose screen, 48 h (100 = growth as untreated, 0 = no growth, -100 = all killed)
CONDITION LABEL: 10 µM unless noted
About 83,000 compounds went through this panel and 20% of them were active in at least one assay; those are over-represented in the sample as a whole.
READOUT: growth (%)
A number alone suffices; assume %.

QUERY: Please report the measured growth for C[C@@H]1N=C(c2ccc(Cl)cc2Cl)Nc2nc3ccccn3c2C1=O
RESULT: 47.2

QUERY: Please report the measured growth for COC(=O)CCc1c(/C=C2\N=C(c3ccc[nH]3)C=C2OC)[nH]c(C)c1C(=O)OCc1ccccc1
RESULT: -3.87

QUERY: Please report the measured growth for Nc1n[nH]c2cccc(C#Cc3cccc(C(=O)Nc4ccc(Cl)c(C(F)(F)F)c4)c3)c12
RESULT: 94.5

QUERY: Please report the measured growth for O=C(COc1ccc(/C=C2\Oc3ccccc3C2=O)cc1)Nc1nccs1
RESULT: 68.9

QUERY: Please report the measured growth for COC(=O)[C@H](C)NC(=O)c1ccc(NC(=O)c2[nH]c(C)c(Cl)c2Cl)c(OCCN)c1
RESULT: 96

QUERY: Please report the measured growth for O=C(Nc1ncc(Cc2ccccc2)s1)c1ccc2c(c1)OCCO2
RESULT: 17.2

QUERY: Please report the measured growth for COc1ccc(NC(=O)c2ccc(NC3=C(c4ccc(Cl)cc4)C(=O)NC3=O)cc2)cc1
RESULT: 83.9

QUERY: Please report the measured growth for COCCNC(=O)Cc1cc(-c2ccc(Cl)cc2)n(-c2ccccc2)c1C
RESULT: 73.5

QUERY: Please report the measured growth for CCOC(=O)c1ccc2c(c1)[n+](=O)c(C(C)=O)c(C(F)(F)F)n2[O-]
RESULT: 40

QUERY: Please report the measured growth for Nc1ncc(-c2ccc3ncnc(N4CCc5ccc(Cl)cc54)c3c2)cn1
RESULT: 5.95

====

Tested on: KM12 colon
ASSAY TEXT: NCI-60 one-dose screen, 48 h
CONDITION LABEL: 10 µM unless noted
This is part of a sample that, as a whole, favours compounds with a hit. Of some 83,000 tested, about 20% had one in any assay. Active and inactive are the calls of the source. Rule for the calls: active = growth percent below 10; inactive = the rest.
Would you mind answering with one of these outcomes? active, inactive

QUERY: Short answer needed: outcome of this test for CSc1nc(CC(C)C)c(C#N)c(=O)n1C ?
RESULT: inactive

QUERY: Short answer needed: outcome of this test for CC(C)C(=O)Nc1ncc(C(=O)NCCN(Cc2ccccc2)C(=O)c2ccc(S(=O)(=O)Nc3ccccc3)cc2)s1 ?
RESULT: inactive

QUERY: Short answer needed: outcome of this test for Cc1c(C(=O)C(SC(=S)N2CCOCC2)SC(=S)N2CCOCC2)nnn1-c1ccc([N+](=O)[O-])cc1 ?
RESULT: inactive

QUERY: Short answer needed: outcome of this test for O=C(c1ccccc1)[C@@H](c1ccccc1)[C@]1(O)C(=O)Nc2ccccc21 ?
RESULT: inactive

QUERY: Short answer needed: outcome of this test for CCCCCCCCOC(=O)c1c(C)[nH]c(/C=C2\N=C(c3ccc[nH]3)C=C2OC)c1C ?
RESULT: active

QUERY: Short answer needed: outcome of this test for Nc1nc(N)c2c(n1)NC(c1ccc3c(c1)OCO3)CC(c1cccc(Nc3ccncc3)c1)=N2 (centres undefined) ?
RESULT: inactive

QUERY: Short answer needed: outcome of this test for O=C(Nc1cccc2c1C(=O)c1cccc(NC(=O)c3ccc(C(=O)Nc4cccc5c4C(=O)c4cccc(NC(=O)c6ccccc6)c4C5=O)cc3)c1C2=O)c1ccccc1 ?
RESULT: inactive

QUERY: Short answer needed: outcome of this test for COc1ccc(C(=O)C2OC3=C(C(=O)CC(C)(C)C3)C2c2cccc(Oc3ccccc3)c2)cc1 (centres undefined) ?
RESULT: inactive

QUERY: Short answer needed: outcome of this test for Nc1ccc(N)c2c1C(=O)c1cccc([N+](=O)[O-])c1C2=O ?
RESULT: inactive

====

Kindly state growth for each of the entries shown.
System: EKVX NSCLC
ASSAY TEXT: NCI-60 one-dose screen, 48 h (100 = growth as untreated, 0 = no growth, -100 = all killed)
CONDITION LABEL: 10 µM unless noted
This is part of a sample that, as a whole, favours compounds with a hit. Of some 83,000 tested, about 20% had one in any assay.
A number alone suffices; assume %.

QUERY: Write down measured growth (EKVX NSCLC) for this compound. O=C1/C(=C/c2cccc(Br)c2)COc2ccc(O)c(O)c21
RESULT: 41.9

QUERY: Write down measured growth (EKVX NSCLC) for this compound. CCOC(=O)CSc1nc2sc3c(c2c(=O)n1-c1ccccc1)CCCCC3
RESULT: 103

QUERY: Write down measured growth (EKVX NSCLC) for this compound. C#CCOc1cccc(Nc2c(Cl)c(CCl)nc3ccc(Oc4ccccc4)cc23)c1
RESULT: 76.5

QUERY: Write down measured growth (EKVX NSCLC) for this compound. C=C1/C(=C\C=C2/CCC[C@]3(C)[C@@H]([C@H](C)CCCC(C)(C)O)CC[C@@H]23)C[C@@H](OC(=O)CBr)C[C@@H]1O
RESULT: 52.4

QUERY: Write down measured growth (EKVX NSCLC) for this compound. CCN1CCN(c2cc(C(=O)Nc3cccc(Nc4ccc5c(OC)cccc5n4)c3)cc(C(F)(F)F)c2)CC1
RESULT: 46.2

QUERY: Write down measured growth (EKVX NSCLC) for this compound. CCCCC1=C(Br)C(=O)c2ncccc2C1=O
RESULT: 99.2

QUERY: Write down measured growth (EKVX NSCLC) for this compound. CNC(=O)c1cc(Oc2cccc3nc(NC(=O)Nc4ccc(F)cc4F)ccc23)ccn1
RESULT: -0.932

QUERY: Write down measured growth (EKVX NSCLC) for this compound. COc1ccc(C(=O)/C=C/c2ccc(C)cc2)cc1S(N)(=O)=O
RESULT: 81

QUERY: Write down measured growth (EKVX NSCLC) for this compound. FC(F)(F)c1cc(N2CCCCC2)nc(NCCCNc2ccnc3cc(Cl)ccc23)n1
RESULT: 48.3

QUERY: Write down measured growth (EKVX NSCLC) for this compound. COc1ccc(-c2csc(NC(=O)CSc3nc(C)cc(=O)[nH]3)n2)cc1
RESULT: 96.1
